Where these numbers come from: the Immune Epitope Database (IEDB)

tested.target: HLA-A*31:01
experimental.protocol: IEDB peptide-MHC binding, purified MHC/direct/fluorescence; filed as Kd, often an IC50 or EC50 that approximates it; bounds were set here for any values at or beyond the usual limits of such assays
conditions.used: source organism: Mycobacterium tuberculosis
measured.quantity: Kd

The examples below pair each entry with its known result.
> print(dat)
   monomer.sequence  observed.measurement
1         GPASLPTAL               ≥ 20 µM
2         EKAAWGVAL               ≥ 20 µM
3         APRARTAAF               ≥ 20 µM

stdin: Recall the recorded Kd for APRGFRAAF with HLA-A*31:01 and state it.
stdout: ≥ 20 µM

stdin: Try this sequence next: RPRRASSPF
stdout: ≥ 20 µM

stdin: Try this sequence next: TIHLATAPK
stdout: 0.653 µM

stdin: Try this sequence next: ALRSRWRAL
stdout: ≥ 20 µM

stdin: Try this sequence next: KYFVRSTEK
stdout: 0.0021 µM

----------
tested.target: HLA-A*02:01
experimental.protocol: IEDB peptide-MHC binding, purified MHC/competitive/radioactivity; filed as Kd, often an IC50 or EC50 that approximates it; bounds were set here for any values at or beyond the usual limits of such assays
conditions.used: source organism: Trypanosoma cruzi
measured.quantity: pKd
Worth noting: pKd values are minus log10 of concentrations stated in mol/L.

stdin: Reported pKd, sequence GLLPLLLLLG : ____
stdout: 8.57

----------
Let's look at some sequences and their measured pKd.
tested.target: HLA-A*26:01
experimental.protocol: IEDB peptide-MHC binding, purified MHC/direct/fluorescence; filed as Kd, often an IC50 or EC50 that approximates it; bounds were set here for any values at or beyond the usual limits of such assays
conditions.used: source organism: Corynebacterium glutamicum
pKd: −log10 of the molar value.

> print(dat)
   monomer.sequence  observed.measurement
1         AEHDPWWAV                ≤ 4.70

stdin: Reported pKd, sequence IVAWTRTAT : ____
stdout: ≤ 4.70

----------
tested.target: HLA-B*15:01
experimental.protocol: IEDB peptide-MHC binding, purified MHC/direct/fluorescence; filed as Kd, often an IC50 or EC50 that approximates it; bounds were set here for any values at or beyond the usual limits of such assays
conditions.used: source organism: Homo sapiens
measured.quantity: Kd (nM)
Answer in nM, number only, no unit symbol.

stdin: Reported Kd, sequence ETFNTPAMY : ____
stdout: 554

----------
tested.target: HLA-A*03:01
experimental.protocol: IEDB peptide-MHC binding, purified MHC/direct/fluorescence; filed as Kd, often an IC50 or EC50 that approximates it; bounds were set here for any values at or beyond the usual limits of such assays
conditions.used: source organism: Orthohantavirus seoulense
pKd: −log10 of the molar value.
measured.quantity: pKd

stdin: Reported pKd, sequence KPKHLYVSM : ____
stdout: ≤ 4.70

----------
tested.target: HLA-A*03:01
experimental.protocol: IEDB peptide-MHC binding, purified MHC/competitive/fluorescence; bounds were set here for any values at or beyond the usual limits of such assays
conditions.used: source organism: Vaccinia virus Copenhagen
measured.quantity: pIC50
Worth noting: pIC50 values are minus log10 of concentrations stated in mol/L.

stdin: Reported pIC50, sequence KLNGAMVEY : ____
stdout: 4.93

----------
tested.target: HLA-A*11:01
experimental.protocol: IEDB peptide-MHC binding, purified MHC/direct/fluorescence; filed as Kd, often an IC50 or EC50 that approximates it; bounds were set here for any values at or beyond the usual limits of such assays
conditions.used: source organism: Shigella flexneri
measured.quantity: Kd

stdin: Reported Kd, sequence LSSIGIPAY : ____
stdout: ≥ 20 µM

----------
tested.target: HLA-B*27:03
experimental.protocol: IEDB peptide-MHC binding, purified MHC/competitive/fluorescence; filed as Kd, often an IC50 or EC50 that approximates it; bounds were set here for any values at or beyond the usual limits of such assays
conditions.used: source organism: Ephydatia fluviatilis
pKd: −log10 of the molar value.
measured.quantity: pKd

stdin: Reported pKd, sequence TLKPGTMSV : ____
stdout: ≤ 4.70

----------
tested.target: HLA-A*30:01
experimental.protocol: IEDB peptide-MHC binding, purified MHC/direct/fluorescence; filed as Kd, often an IC50 or EC50 that approximates it; bounds were set here for any values at or beyond the usual limits of such assays
conditions.used: source organism: Yersinia pestis
pKd: −log10 of the molar value.
measured.quantity: pKd

stdin: Reported pKd, sequence AFASLQDML : ____
stdout: ≤ 4.70

----------
tested.target: HLA-C*03:03
experimental.protocol: IEDB peptide-MHC binding, purified MHC/direct/fluorescence; filed as Kd, often an IC50 or EC50 that approximates it; bounds were set here for any values at or beyond the usual limits of such assays
conditions.used: source organism: Mycobacterium tuberculosis C
measured.quantity: Kd

stdin: Reported Kd, sequence YLDAIQQPV : ____
stdout: 256 nM

----------
Let's look at some sequences and their measured pKd.
tested.target: HLA-B*27:05
experimental.protocol: IEDB peptide-MHC binding, purified MHC/direct/fluorescence; filed as Kd, often an IC50 or EC50 that approximates it; bounds were set here for any values at or beyond the usual limits of such assays
conditions.used: source organism: Yersinia pestis
pKd: −log10 of the molar value.

> print(dat)
   monomer.sequence  observed.measurement
1         FMSLQSGDV                ≤ 4.70

stdin: Recall the recorded pKd for QLKSRAAVL with HLA-B*27:05 and state it.
stdout: ≤ 4.70

stdin: Try this sequence next: FLPPQIPVI
stdout: ≤ 4.70

----------
tested.target: HLA-A*31:01
experimental.protocol: IEDB peptide-MHC binding, purified MHC/direct/fluorescence; filed as Kd, often an IC50 or EC50 that approximates it; bounds were set here for any values at or beyond the usual limits of such assays
conditions.used: source organism: Giardia intestinalis
measured.quantity: Kd

stdin: Reported Kd, sequence GPRRAAWRI : ____
stdout: ≥ 20 µM

----------
Let's look at some sequences and their measured log10 of Kd.
tested.target: HLA-A*11:01
experimental.protocol: IEDB peptide-MHC binding, purified MHC/competitive/radioactivity; filed as Kd, often an IC50 or EC50 that approximates it; bounds were set here for any values at or beyond the usual limits of such assays
conditions.used: source organism: Vaccinia virus WR
Field: value | Transform: log10 | Quantity: Kd | Unit: nM

> print(dat)
   monomer.sequence  observed.measurement
1         LLRHYYNKR                  2.92
2         LTILDDNLY                  3.51
3         SIKDVIHDY                  3.45

stdin: Reported log10 of Kd, sequence KIVNGVLSR : ____
stdout: 1.95

stdin: Try this sequence next: PVETLFGSY
stdout: 3.34

stdin: Try this sequence next: IISEEYLSK
stdout: 1.43

stdin: Try this sequence next: ITDMINASLK
stdout: 1.91

----------
tested.target: HLA-B*46:01
experimental.protocol: IEDB peptide-MHC binding, purified MHC/competitive/fluorescence; filed as Kd, often an IC50 or EC50 that approximates it; bounds were set here for any values at or beyond the usual limits of such assays
conditions.used: source organism: Brucella melitensis bv. 1 str. 16M
measured.quantity: pKd
Worth noting: pKd values are minus log10 of concentrations stated in mol/L.

stdin: Reported pKd, sequence IAASNLEQF : ____
stdout: 7.32

----------
tested.target: HLA-A*29:02
experimental.protocol: IEDB peptide-MHC binding, purified MHC/competitive/fluorescence; filed as Kd, often an IC50 or EC50 that approximates it; bounds were set here for any values at or beyond the usual limits of such assays
conditions.used: source organism: Vibrio parahaemolyticus K5030
measured.quantity: Kd

stdin: Reported Kd, sequence WLGDVWQEK : ____
stdout: ≥ 20 µM

----------
tested.target: HLA-B*39:01
experimental.protocol: IEDB peptide-MHC binding, purified MHC/competitive/fluorescence; filed as Kd, often an IC50 or EC50 that approximates it; bounds were set here for any values at or beyond the usual limits of such assays
conditions.used: source organism: Orthohantavirus tulaense
measured.quantity: Kd

stdin: Reported Kd, sequence FMSRKLHRY : ____
stdout: ≥ 20 µM

----------
tested.target: HLA-B*18:01
experimental.protocol: IEDB peptide-MHC binding, purified MHC/competitive/radioactivity; filed as Kd, often an IC50 or EC50 that approximates it; bounds were set here for any values at or beyond the usual limits of such assays
conditions.used: source organism: Mammarenavirus juninense
pKd: −log10 of the molar value.
measured.quantity: pKd

stdin: Recall the recorded pKd for MDYLILKNL with HLA-B*18:01 and state it.
stdout: ≤ 4.27

----------
tested.target: HLA-A*03:01
experimental.protocol: IEDB peptide-MHC binding, purified MHC/competitive/radioactivity; filed as Kd, often an IC50 or EC50 that approximates it; bounds were set here for any values at or beyond the usual limits of such assays
conditions.used: source organism: Dengue virus 1 Singapore/S275/1990
measured.quantity: pKd
Worth noting: pKd values are minus log10 of concentrations stated in mol/L.

stdin: Reported pKd, sequence ILARWGSFK : ____
stdout: 8.67
